FYI, the data here is from paper PMC12136788.

Provide the recorded log10 binding signal for the entries that follow.
TARGET: T1, UNK ZnF1-6 (called full-length) (human, UniProt Q9C0B0 30-357)
T1 sequence: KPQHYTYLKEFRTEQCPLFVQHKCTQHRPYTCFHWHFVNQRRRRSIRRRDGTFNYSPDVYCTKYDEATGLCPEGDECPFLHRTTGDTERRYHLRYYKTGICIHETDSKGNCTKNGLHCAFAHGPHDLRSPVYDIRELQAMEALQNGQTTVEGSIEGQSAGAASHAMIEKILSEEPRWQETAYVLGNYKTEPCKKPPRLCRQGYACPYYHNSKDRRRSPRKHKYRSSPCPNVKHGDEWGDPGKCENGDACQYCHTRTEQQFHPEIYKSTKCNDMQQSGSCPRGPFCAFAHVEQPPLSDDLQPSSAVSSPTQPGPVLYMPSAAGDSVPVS
MEASUREMENT PROTOCOL: nsRBNS (natural sequence RNA bind-n-seq); RBNS binding buffer (assumed for nsRBNS): 25 mM Tris pH 7.5, 150 mM KCl, 3 mM MgCl2, 0.01% Triton X-100, 500 ug/ml BSA, 20 U/ml SUPERase-In, 4 C; UNK is unkempt and MSI1 is Musashi-1; names of the RNAs are library labels; protein concentration not given here; high values mean tight binding
The full ranking holds about 5,800 sequences; the median of “enrichment r” is about 0.68, and the highest 2% start at about 11. The entries come from a sample that favours the highest values as a whole.
All values: base-10 log of binding signal in enrichment R.

Ask: So what's the measured log10 binding signal for this one? chrX:85861749:85861850:-|3pUTR|ENSG00000188419|msi1|FALSE|unique (ssRNA) RNA: GGGAGUUCUACAGUCCGACGAUCCUAAUUUAAAAUUUCAGAAAAUGCUAUUAAAGAAUUUUGAUUCAAGUAUUUAAACUGUUUAGUUAUGCAUGCUUCUUAUUAACCGAAAAUGAUAAUACCAUUUAGUUUAGUGAUCAGUAUCAACAGAGGAUUGAGCAUCA
Reply: 0.36

// batch mode: one log10 binding signal value per listed entry
1. chr17:15565482:15566353:-|three_prime_utr|ENSG00000241322|control|control|control (ssRNA) RNA: GGGAGUUCUACAGUCCGACGAUCCACCCAAAGAAAAAGUCUUGGAAAAUCCCUAUGUCACCUGACCAAUUCCUCCUGACUGUUAGCGCCCUGCAGCACGCCCGUAAUUCCGGGGAAUUUGCCUAUCCCUGUAGGCCCCAAACACAACAGAGGAUUGAGCAUCA
2. chr2:167954955:167954998:-|3pUTR|ENSG00000198648|msi1_unk|total|mutant (ssRNA) RNA: GGGAGUUCUACAGUCCGACGAUCGUUGUAUUCCGAAAUUAAUAUACUUAUAAAAUUAAGAUUUAUCCGCCAAACUUGAAUUCCCGUUUUAAAACUGACUGUGAAUUUUAUUUUUCAUAUAUUUAUGCAUUACACACCUCCGCUCAACAGAGGAUUGAGCAUCA
3. chr2:167954955:167954998:-|3pUTR|ENSG00000198648|msi1_unk|FALSE|overlapping (ssRNA) RNA: GGGAGUUCUACAGUCCGACGAUCGUUGUAUUUAGAAAUUAAUAUACUUAUAAAAUUAAGAUUUAUUAGCCAAACUUGAAUUCUAGUUUUAAAACUGACUGUGAAUUUUAUUUUUCAUAUAUUUAUGCAUUACACACCUUAGCUCAACAGAGGAUUGAGCAUCA
4. chr1:150220393:150220494:-|3pUTR|ENSG00000143401|msi1_unk|FALSE|overlapping (ssRNA) RNA: GGGAGUUCUACAGUCCGACGAUCAUUGUAUGUAGAGAAAAAUUUUCAUUGACUCCCAUUGUGGAAUUCCCUAGCAAUUUAUUUAGACUUAAUUUUUUAAAUUCAAGCUUACUGUAUUAGUCAUUUUUAGCCCAUAAUUAAAACCAACAGAGGAUUGAGCAUCA
5. chr4:140550230:140550341:+|CDS|ENSG00000179387|unk|FALSE|unique (ssRNA) RNA: GGGAGUUCUACAGUCCGACGAUCGAAUUUGACAAGUUUUGGUUUGAAGAAGAACCAGAAAGCAUUAUGUAUUUCAAUUUGUAUAGAGAGAAGUUUCAUGAAAAGAUUAAAGGACUUUUACUGGAUUGUAAUGUAGCACUUACUCAACAGAGGAUUGAGCAUCA
6. chr10:73917138:73917420:+|3pUTR|ENSG00000122861|msi1|FALSE|unique (ssRNA) RNA: GGGAGUUCUACAGUCCGACGAUCGGAAUGUAUUAUUCUGCAGCAUGACCUGUGACCAGCACUGUCUCAGUUUCACUUUCACAUAGAUGUCCCUUUCUUGGCCAGUUAUCCCUUCCUUUUAGCCUAGUUCAUCCAAUCCUCACUCAACAGAGGAUUGAGCAUCA

Reply:
[-0.01, 0.54, 1.18, 2.36, -0.19, 0.19]

// batch mode: one log10 binding signal value per listed entry
1. chr5:75599425:75599511:+|3pUTR|ENSG00000122008|msi1_unk|total|mutant (ssRNA) RNA: GGGAGUUCUACAGUCCGACGAUCGAACCGCUUAAUUAAGAACUCACAGACUUUGACAAAGUGGUAACCCGACUUUUAAUUACCCGAUUCUUCAAAUCCGGCUUAAUGCCUGCCCGCAUGCCAAUCCAAUCCCAUGACUGAUGUCAACAGAGGAUUGAGCAUCA
2. chr10:92030311:92030412:+|3pUTR|ENSG00000095564|unk|FALSE|unique (ssRNA) RNA: GGGAGUUCUACAGUCCGACGAUCAUAUAAGAUUGAAACUGUAAAAUAUAUGCAACUGUGUGUUAUUUGUAGGAAAUGGUCACUAGAAAGAGCAAAAGAUUAUUCAGGUAUACAGGUUUUUUUUCAUUGUUUAGGAUUUUAACUCAACAGAGGAUUGAGCAUCA

Reply:
[-0.27, 0.53]
